- System: primary human hepatic stellate cells (donor 1)
- MEASUREMENT_NOTES: scaled lipid accumulation score (0 = DMSO-like, 1 = nortriptyline-like); higher = stronger HSC inactivation (lipid re-accumulation), active = hit call of the paper
- DETAILS: library stock concentration: 10 mM; 48 h
Counter-ions that a name gives are not always drawn. Hit rate of the full screen: of about 5,800 compounds, about 620 (11%) showed activity. What follows is part of a selection rich in actives, with near analogues and random picks from the rest.
Reported scaled lipid accumulation score by item:

QUERY: What scaled lipid accumulation score value was documented for this compound, CCOCC(O)COc1ccc(NC(=O)CC[S+](C)C)cc1 (stereo not drawn) [Suplatast Tosylate] ?
RESULT: ≤ 0 (inactive)

QUERY: Form field: reported scaled lipid accumulation score of CN[C@H]1CC[C@@H](c2ccc(Cl)c(Cl)c2)c2ccccc21 [Sertraline HCl]
RESULT: 0.033 (inactive)

QUERY: # get_value(readout='scaled lipid accumulation score', item= N=C(N)c1ccc(N2CCN(C3CCN(CC(=O)O)CC3)CC2)cc1 )
RESULT: ≤ -0.006 (inactive)

QUERY: Can you share its scaled lipid accumulation score? I mean this compound: CC(C)c1nn(-c2c(Cl)cccc2Cl)c2nc(Cc3ccc(OCCO)cc3)[nH]c(=O)c12
RESULT: 0.136 (inactive)

QUERY: scaled lipid accumulation score lookup needed for CCOCC(O)COc1ccc(NC(=O)CC[S+](C)C)cc1 (stereo not drawn) [Suplatast tosylate] , thanks.
RESULT: ≤ -0.001 (inactive)

QUERY: # scaled lipid accumulation score lookup, item C[C@@H]1O[C@@H](O[C@H]2[C@H](Oc3cc(O)c(C(=O)CCc4ccc(O)cc4)c(O)c3)O[C@H](CO)[C@@H](O)[C@@H]2O)[C@H](O)[C@H](O)[C@H]1O [Naringin Dihydrochalcone]
RESULT: 0.078 (inactive)

QUERY: Request the reported scaled lipid accumulation score associated with COc1ccc2cc(C(C)C(=O)O)ccc2c1 (stereo not drawn) [Naproxen(+)]
RESULT: ≤ 0 (inactive)

QUERY: scaled lipid accumulation score lookup needed for CN(C)[C@@H]1C(O)=C(C(=O)NCN2CCCC2)C(=O)[C@@]2(O)C(O)=C3C(=O)c4c(O)cccc4[C@@](C)(O)[C@H]3C[C@@H]12 , thanks.
RESULT: ≤ 0 (inactive)
